Entries annotated with measured B-scores (WT)
Biological target: MRGPRX2-WT (wild-type MRGPRX2 receptor) (Homo sapiens, UniProt Q96LB1)
Construct: expressed in transfected cells
Assay: Primary HTS, Ca2+ mobilization (fluorescence ratio, B-score) in HEK293-Gα15 cells stably expressing wild-type MRGPRX2
Assay type: cell-based
Settings: 10 μM compound, Supplementary Table 1
Counter-ions that a name gives are not always drawn.

- compound: "CC(=O)OCC[N+](C)(C)C [Acetylcholine]"
  B-scores (WT): 23.36
- compound: "CNCC[C@H](Oc1cccc2ccccc12)c1cccs1 [Duloxetine Hydrochloride]"
  B-scores (WT): 44.22
- compound: "CN1[C@@H]2CC[C@H]1C[C@@H](OC(c1ccccc1)c1ccccc1)C2 [Benztropine Methanesulfonate]"
  B-scores (WT): 26.25

---

B-scores (MUT) for assorted compounds
Target: MRGPRX2-MUT (MRGPRX2 N62S mutation) (Homo sapiens, UniProt Q96LB1, N62S)
Construct: expressed in transfected cells
Experiment: Primary HTS, Ca2+ mobilization (fluorescence ratio, B-score) in HEK293-Gα15 cells stably expressing the MRGPRX2 N62S mutation
Format: cell-based
Conditions: 10 μM compound, MRGPRX2-MUT (N62S) cells, Table 1
Counter-ions that a name gives are not always drawn.

- compound: "C[C@@H](Oc1cc(-c2cnn(C3CCNCC3)c2)cnc1N)c1c(Cl)ccc(F)c1Cl"
  assayed system: "MRGPRX2-MUT (MRGPRX2 N62S mutation) (Homo sapiens, UniProt Q96LB1, N62S)"
  B-scores (MUT): -0.44
- compound: "CN1CCCC(n2nc(Cc3ccc(Cl)cc3)c3ccccc3c2=O)CC1 (stereo not shown) [Azelastine Hydrochloride]"
  assayed system: "MRGPRX2-MUT (MRGPRX2 N62S mutation) (Homo sapiens, UniProt Q96LB1, N62S)"
  B-scores (MUT): 3.47
- compound: "CN1CCC(=C2c3ccccc3C=Cc3ccccc32)CC1 [Cyproheptadine Hydrochloride]"
  assayed system: "MRGPRX2-MUT (MRGPRX2 N62S mutation) (Homo sapiens, UniProt Q96LB1, N62S)"
  B-scores (MUT): 2.29
- compound: "CN1CCc2c(c3ccccc3n2Cc2ccccc2)C1.CN1CCc2c(c3ccccc3n2Cc2ccccc2)C1.O=S(=O)(O)c1cccc2c(S(=O)(=O)O)cccc12 [Mebhydrolin Naphthalenesulfonate]"
  assayed system: "MRGPRX2-MUT (MRGPRX2 N62S mutation) (Homo sapiens, UniProt Q96LB1, N62S)"
  B-scores (MUT): 1.93
- compound: "CN(C)CC[C@@H](c1ccc(Cl)cc1)c1ccccn1 [Dexchlorpheniramine Maleate]"
  assayed system: "MRGPRX2-MUT (MRGPRX2 N62S mutation) (Homo sapiens, UniProt Q96LB1, N62S)"
  B-scores (MUT): 0.56
- compound: "CO[C@@H](C(=O)N1Cc2n[nH]c(NC(=O)c3ccc(N4CCN(C)CC4)cc3)c2C1)c1ccccc1"
  assayed system: "MRGPRX2-MUT (MRGPRX2 N62S mutation) (Homo sapiens, UniProt Q96LB1, N62S)"
  B-scores (MUT): 0.61
- compound: "COc1ccc2cc1Oc1ccc(cc1)C[C@H]1c3c(cc4c(c3Oc3cc5c(cc3OC)CCN(C)[C@@H]5C2)OCO4)CCN1C"
  assayed system: "MRGPRX2-MUT (MRGPRX2 N62S mutation) (Homo sapiens, UniProt Q96LB1, N62S)"
  B-scores (MUT): 1.14
- compound: "Cc1ccc(/C(=C\\CN2CCCC2)c2ccccn2)cc1.Cl [Triprolidine Hydrochloride]"
  assayed system: "MRGPRX2-MUT (MRGPRX2 N62S mutation) (Homo sapiens, UniProt Q96LB1, N62S)"
  B-scores (MUT): 0.68
- compound: "CCCCC(CC)CNC(=N)NC(=N)NCCCCCCNC(=N)NC(=N)NCC(CC)CCCC (stereo not shown) [Alexidine Hydrochloride]"
  assayed system: "MRGPRX2-MUT (MRGPRX2 N62S mutation) (Homo sapiens, UniProt Q96LB1, N62S)"
  B-scores (MUT): 1.68
- compound: "Cc1ccc(NC(=O)c2ccc(CN3CCN(C)CC3)cc2)cc1Nc1nc(-c2cccnc2)cs1"
  assayed system: "MRGPRX2-MUT (MRGPRX2 N62S mutation) (Homo sapiens, UniProt Q96LB1, N62S)"
  B-scores (MUT): 3.82
- compound: "CC(CN(C)C)CN1c2ccccc2CCc2ccccc21 (stereo not shown) [Trimipramine Maleate]"
  assayed system: "MRGPRX2-MUT (MRGPRX2 N62S mutation) (Homo sapiens, UniProt Q96LB1, N62S)"
  B-scores (MUT): 3.48
- compound: "CCOC(=O)N1CCC(=C2c3ccc(Cl)cc3CCc3cccnc32)CC1"
  assayed system: "MRGPRX2-MUT (MRGPRX2 N62S mutation) (Homo sapiens, UniProt Q96LB1, N62S)"
  B-scores (MUT): -3.30
- compound: "CN1CCC(=C2c3ccccc3CC(=O)c3sccc32)CC1 [Ketotifen]"
  assayed system: "MRGPRX2-MUT (MRGPRX2 N62S mutation) (Homo sapiens, UniProt Q96LB1, N62S)"
  B-scores (MUT): 1.38
- compound: "CN(C)CCCN1c2ccccc2CCc2ccc(Cl)cc21 [Clomipramine Hydrochloride]"
  assayed system: "MRGPRX2-MUT (MRGPRX2 N62S mutation) (Homo sapiens, UniProt Q96LB1, N62S)"
  B-scores (MUT): 2.17
- compound: "CN(C)CCC(c1ccc(Br)cc1)c1ccccn1 (stereo not shown) [Brompheniramine]"
  assayed system: "MRGPRX2-MUT (MRGPRX2 N62S mutation) (Homo sapiens, UniProt Q96LB1, N62S)"
  B-scores (MUT): 0.64
- compound: "CCn1cc(C(=O)O)c(=O)c2cc(F)c(N3CCNCC3)cc21"
  assayed system: "MRGPRX2-MUT (MRGPRX2 N62S mutation) (Homo sapiens, UniProt Q96LB1, N62S)"
  B-scores (MUT): 0.05

---

Biological target: MRGPRX2-MUT (MRGPRX2 N62S mutation) (Homo sapiens, UniProt Q96LB1, N62S)
Construct: expressed in transfected cells
Sequence (Q96LB1 1-330 N62S): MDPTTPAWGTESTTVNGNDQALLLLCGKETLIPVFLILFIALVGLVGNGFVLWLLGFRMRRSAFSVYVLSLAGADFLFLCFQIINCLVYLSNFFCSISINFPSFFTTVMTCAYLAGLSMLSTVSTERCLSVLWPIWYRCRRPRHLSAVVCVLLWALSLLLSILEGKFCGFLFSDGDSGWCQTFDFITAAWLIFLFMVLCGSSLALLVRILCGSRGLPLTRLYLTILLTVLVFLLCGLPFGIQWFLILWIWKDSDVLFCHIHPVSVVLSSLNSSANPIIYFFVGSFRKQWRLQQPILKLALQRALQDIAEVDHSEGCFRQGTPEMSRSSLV
Assay: Primary HTS, Ca2+ mobilization (fluorescence ratio, B-score) in HEK293-Gα15 cells stably expressing the MRGPRX2 N62S mutation
Type: cell-based
Details: 10 μM compound, MRGPRX2-MUT (N62S) cells, Supplementary Table 1
Counter-ions that a name gives are not always drawn.
Classify as follows. Reported B-scores (MUT) greater than or equal to 10: Satisfied. Reported B-scores (MUT) below: Not satisfied.

- molecule: "CN1CCCC(n2nc(Cc3ccc(Cl)cc3)c3ccccc3c2=O)CC1 (stereo not drawn) [Azelastine Hydrochloride]"
  label class: "Not satisfied"
- molecule: "COc1cc(C(=O)NCc2ccc(OCCN(C)C)cc2)cc(OC)c1OC [Trimethobenzamide Hydrochloride]"
  label class: "Not satisfied"
- molecule: "CCCCC[C@H](O)/C=C/[C@H]1[C@H](O)CC(=O)[C@@H]1CCCCCCC(=O)O"
  label class: "Satisfied"
- molecule: "CC(=O)OCC[N+](C)(C)C [Acetylcholine Chloride]"
  label class: "Satisfied"
- molecule: "C[N+](C)(C)CCOC(N)=O"
  label class: "Satisfied"
- molecule: "CC(=O)c1ccc2c(c1)N(CCCN(C)C)c1ccccc1S2 [Acepromazine Maleate]"
  label class: "Satisfied"
- molecule: "CC(Cc1ccc(O)cc1)NCC(O)c1cc(O)cc(O)c1 (stereo not drawn)"
  label class: "Satisfied"
- molecule: "CC(C)NCC(O)c1cc(O)cc(O)c1 (stereo not drawn)"
  label class: "Not satisfied"
- molecule: "CCCCC(CC)CNC(=N)NC(=N)NCCCCCCNC(=N)NC(=N)NCC(CC)CCCC (stereo not drawn) [Alexidine Hydrochloride]"
  label class: "Not satisfied"

---

Molecular target: MRGPRX2-MUT (MRGPRX2 N62S mutation) (Homo sapiens, UniProt Q96LB1, N62S)
Construct: expressed in transfected cells
Sequence (Q96LB1 1-330 N62S): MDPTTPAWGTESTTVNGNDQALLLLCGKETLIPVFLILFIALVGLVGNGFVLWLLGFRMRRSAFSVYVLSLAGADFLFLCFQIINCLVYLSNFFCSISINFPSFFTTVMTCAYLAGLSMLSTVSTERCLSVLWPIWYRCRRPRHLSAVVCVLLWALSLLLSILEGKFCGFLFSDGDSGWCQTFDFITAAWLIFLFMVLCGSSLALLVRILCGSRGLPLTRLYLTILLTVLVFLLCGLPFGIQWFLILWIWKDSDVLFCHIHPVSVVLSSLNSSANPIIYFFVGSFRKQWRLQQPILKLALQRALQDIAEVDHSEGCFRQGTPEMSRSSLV
Assay: Primary HTS, Ca2+ mobilization (fluorescence ratio, B-score) in HEK293-Gα15 cells stably expressing the MRGPRX2 N62S mutation
Format: cell-based
Settings: 10 μM compound, MRGPRX2-MUT (N62S) cells, Supplementary Table 2
Where a name gives a salt, the structure may show the parent alone.
Label fulfilled when B-scores (MUT) is at or above 3; anything below gets not fulfilled.

- compound: "CC(=O)OCC[N+](C)(C)C [Acetylcholine]"
  label class: "fulfilled"
- compound: "CN1[C@@H]2CC[C@H]1C[C@@H](OC(=O)C(CO)c1ccccc1)C2 (stereo partly drawn) [Atropine Sulfate]"
  label class: "not fulfilled"
- compound: "CNC[C@H](O)c1ccc(O)c(O)c1 [Epinephrine]"
  label class: "fulfilled"
- compound: "CC(=O)OCC[N+](C)(C)C [Acetylcholine Chloride]"
  label class: "fulfilled"
- compound: "CN(C)CCCN1c2ccccc2CCc2ccc(Cl)cc21 [Clomipramine Hydrochloride]"
  label class: "not fulfilled"
- compound: "COc1ccc(CCN(C)CCCC(C#N)(c2ccc(OC)c(OC)c2)C(C)C)cc1OC (stereo not drawn) [Verapamil Hydrochloride]"
  label class: "not fulfilled"
- compound: "CN(C)CCN(Cc1ccc(Cl)cc1)c1ccccn1.Cl [Chloropyramine Hydrochloride]"
  label class: "fulfilled"
- compound: "CNCCCN1c2ccccc2CCc2ccccc21 [Desipramine]"
  label class: "not fulfilled"
- compound: "CN1CCN(CCCN2c3ccccc3Sc3ccc(C(F)(F)F)cc32)CC1"
  label class: "not fulfilled"
- compound: "CC(C)(C)NCC(O)c1ccc(O)c(CO)c1 (stereo not drawn)"
  label class: "not fulfilled"
- compound: "CC(C)NCC(O)c1ccc(O)c(O)c1 (stereo not drawn) [Isoproterenol Hydrochloride]"
  label class: "not fulfilled"
- compound: "CC(=O)c1ccc2c(c1)N(CCCN(C)C)c1ccccc1S2 [Acepromazine Maleate]"
  label class: "fulfilled"
- compound: "CN1[C@@H]2CC(OC(=O)[C@H](CO)c3ccccc3)C[C@H]1[C@@H]1O[C@@H]12.Cl (stereo partly drawn) [Hyoscine hydrochloride]"
  label class: "not fulfilled"
- compound: "COc1cccc2c1C(=O)c1c(O)c3c(c(O)c1C2=O)C[C@@](O)(C(C)=O)C[C@@H]3O[C@H]1C[C@H](N)[C@H](O)[C@H](C)O1 [Daunorubicin Hydrochloride]"
  label class: "fulfilled"
- compound: "CN1[C@@H]2CC[C@H]1C[C@@H](OC(=O)[C@H](CO)c1ccccc1)C2"
  label class: "not fulfilled"
- compound: "CNCCC=C1c2ccccc2CCc2ccccc21 [Nortriptyline Hydrochloride]"
  label class: "not fulfilled"
- compound: "CN(C)CCCN1c2ccccc2CCc2ccccc21 [Imipramine Hydrochloride]"
  label class: "fulfilled"
- compound: "C[N+](C)(C)CCOC(N)=O"
  label class: "fulfilled"
